Exercise: state measured melting point for each of the compounds provided.

Give a short answer stating reported melting point for N#Cc1cc(C(F)(F)F)nn1-c1ccc(NC(=O)c2ccncc2F)cc1 . 161 to 162 °C

Give a short answer stating reported melting point for C[C@H](NC(=O)COc1ccc2c(-c3ccccc3)nn(C)c2n1)c1ccccc1 . 55 to 56 °C

Give a short answer stating reported melting point for CC1(C)OCc2cc(CCNC(=O)C(F)(F)F)ccc2O1 . 91 to 93 °C

Give a short answer stating reported melting point for CC(C)(C)c1cc(C[C@@H]2SCNC2=O)cc(C(C)(C)C)c1O . 149 to 150 °C

====

Exercise: state measured melting point for each of the molecules provided.

Give a short answer stating reported melting point for O=C(N[C@H]1CC[C@H](CCN2CCN(c3nccc4c3OCC4)CC2)CC1)c1ccc(N2CCCCC2)cc1 . 182 °C

Give a short answer stating reported melting point for CS(=O)(=O)OCc1cc(-c2ccc3c(c2)CCO3)nn(CC=Cc2ccc(Cl)cc2)c1=O . 135 to 140 °C

Give a short answer stating reported melting point for COc1ccc2c(c1)C(C(=O)N(Cc1ccc(Cl)cc1)c1ccc(C(C)C)cc1)CCC2 (configuration not stated) . 87 to 88 °C

Give a short answer stating reported melting point for CN1CSC(=Cc2ccc(O)c(C(C)(C)C)c2)C1=O . > 230 °C

Give a short answer stating reported melting point for CCc1cc2[nH]c(=O)c(=O)[nH]c2c([N+](=O)[O-])c1Cl . > 330 °C

Give a short answer stating reported melting point for CC1CC(=O)Nc2nc(Br)c3ncccc3c21 (configuration not stated) . 251 to 252 °C

Give a short answer stating reported melting point for CCOC(=O)c1c(-c2cc(C)c(O)c(C)c2)c(C)n2c1-c1cc(OC)c(OC)cc1C(C)(C)C2 . 200 to 202 °C
